Entries annotated with measured IC50
system: Caco (colon); experiment: Cytotoxicity on human cells, automated nuclei counting: Caco; assay type: cell-based; conditions: exposed 24 h to 48 h, 0.1 to 25 μM

compound | value.units | qualifier.sign | IC50
Cc1cccnc1NC(=O)Nc1cccc2c1C1CC3(CCN1C2=O)OCCO3 (stereo not drawn) [Compound 45] | µM | > | 25
O=C(Nc1ccc(Br)cn1)Nc1cccc2c1C1CCCCN1C2=O (stereo not drawn) [Compound 18] | µM | > | 25
COc1cc(NC(=O)Nc2cccc3c2C2CC4(CCN2C3=O)OCCO4)nc2ccccc12 (stereo not drawn) [Compound 48] | µM | > | 25
O=C1CCN2C(=O)c3cccc(NC(=O)Nc4ccccn4)c3C2C1 (stereo not drawn) [Compound 97] | µM | = | 7
O=C(Nc1csc(-c2ccncc2)n1)Nc1cccc2c1C1CCCCN1C2=O (stereo not drawn) [Compound 37] | µM | = | 1.5
O=C1c2cccc(NC(=S)Nc3ncccc3Br)c2C2CC3(CCN12)SCCS3 (stereo not drawn) [Compound 74] | µM | = | 20
Cc1cc(NC(=O)Nc2cccc3c2C2CCCCN2C3=O)no1 (stereo not drawn) [Compound 24] | µM | = | 3
O=C1c2cccc(NC(=S)Nc3ccccn3)c2C2CC3(CCN12)SCCS3 (stereo not drawn) [Compound 70] | µM | = | 2
O=C(Nc1cnccn1)Nc1cccc2c1C1CCCCN1C2=O (stereo not drawn) [Compound 38] | µM | = | 1
O=C1c2cccc(NC(=S)Nc3ncccn3)c2C2CCCCN12 (stereo not drawn) [Compound 65] | µM | = | 20
O=C(Nc1cnccn1)Nc1cccc2c1C1C[C@@H](O)CCN1C2=O (stereo partly drawn) [Compound 105] | µM | > | 25
COc1cc(NC(=O)Nc2cccc3c2C2CC4(CCN2C3=O)SCCS4)nc2ccccc12 (stereo not drawn) [Compound 49] | µM | = | 15
O=C(Nc1nc2ccccc2s1)Nc1cccc2c1C1CCCCN1C2=O (stereo not drawn) [Compound 34] | µM | = | 0.7
O=C(Nc1cccc2c1C1CCCCN1C2=O)Nc1ncccc1Br (stereo not drawn) [Compound 75] | µM | = | 5
O=C1c2cccc(NC(=S)Nc3cc[nH]n3)c2C2CC3(CCN12)SCCS3 (stereo not drawn) [Compound 71] | µM | = | 15
